Biological target: full length human PD-L1 on cells (human, UniProt Q9NZQ7 19-290)
Sequence (Q9NZQ7 19-290 limits assumed): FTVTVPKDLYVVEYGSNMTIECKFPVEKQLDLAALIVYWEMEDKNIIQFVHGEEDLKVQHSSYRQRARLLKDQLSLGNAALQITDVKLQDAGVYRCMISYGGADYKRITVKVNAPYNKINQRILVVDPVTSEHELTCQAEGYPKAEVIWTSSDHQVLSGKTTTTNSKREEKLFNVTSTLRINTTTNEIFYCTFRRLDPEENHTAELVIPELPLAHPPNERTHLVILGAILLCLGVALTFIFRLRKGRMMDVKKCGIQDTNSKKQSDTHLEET
Test: cell-based or functional assay
property: IFN-γ (pg/mL), PBMC stimulation, 0.1 µg/mL mAb
Reply with just the number (in pg/mL).

Record excerpt, results attached:
chimeric anti-PD-L1 antibody 105C5D7 (antibody, V domains shown, Purified from hybridoma of Harbour H2L2 mice: human variable regions, rat constant regions) VH: EVQLVESGGGLVQPGGSLRLSCAASGFTFSSYWMSWVRQAPGKGLEWVANIKQDGNEKYYVDSVKGRFTISRDNAKNSLYLQMNSLRAEDTAVYYCARNIKWGDAFDIWGQGTMVTVSS VL: DIQMTQSPSSLSASVGDRVTITCRASQSISSYLNWYQQKPGKAPKLLIYAASSLQSGVPSRFSGSGSGTDFTLTISSLQPEDFAIYSCQQSYSIPLTFGGGTKVEIK    5850
chimeric anti-PD-L1 antibody 73D3G2 (antibody, V domains shown, Purified from hybridoma of Harbour H2L2 mice: human variable regions, rat constant regions) VH: EVQLVESGGGLVQPGGSLRLSCAASGFTFNTYWMNWVRQAPGRGLEWVANIKQDGGEKYYVDSVKGRFTISRDNAKNSLYLQMNSLRAEDTAMYYCARDGRSWYPDAFDIWGQGTVVTVSS VL: DIQMTQSPSTLSASVGDRVTITCRASQSISTWLAWYQQKLGKAPKLLIYEVSILESGVPSRFSGSGSGTEFTLTISSLQPDDFATYYCQQYHSFSSFGGGTRVEIK    9560

Fill in: IFN-γ (pg/mL), PBMC stimulation, 0.1 µg/mL mAb of chimeric anti-PD-L1 antibody 78A11F6 (antibody, V domains shown, Purified from hybridoma of Harbour H2L2 mice: human variable regions, rat constant regions) VH: EVQLVESGGGLVQPGGSLRLSCAASGITFSSYWMSWVRQTPGKGLEWVANIKQDGSEKYYVKSVKGRFTISRDNAKNSLYLQMNSLRAEDTAVYYCVRDRAVPGTGAFDIWGQGTMVIVSS VL: DIQMTQSPSTLSASVGDRVTITCRASQSISNWLAWYQQKPGKAPKLLIYKASSLESGVPSRFSGSGSGTEFTLTISSLQPDDFATYYCQQYDSSLFTFGQGTKLEIK is ___
6100

Fill in: IFN-γ (pg/mL), PBMC stimulation, 0.1 µg/mL mAb of chimeric anti-PD-L1 antibody 127D2F3 (antibody, V domains shown, Purified from hybridoma of Harbour H2L2 mice: human variable regions, rat constant regions) VH: EVQLVESGGGLVQPGGSLRLSCVASGFTFSSYWMSWVRQAPGKGLEWVANIKQDGSEKYYVDSVKGRLTISRDNAKNSLYLQMKSLRAEDTAVYYCARDPIYSSYFDYWGQGILVTVSS VL: DIQMTQSPSSLSASVGDRVTITCRASQSISNYLNWYQQKPGKAPKLLIYAASSLQSGVPSRFSGSGSGTDFTLTISSLQPEDFAAYYCQQSYGIPFTFGPGTKVDIK is ___
7610

Values from patent US20190010233A1
